- Assayed Target: HA H1 A/California/07/09 (Influenza A virus (A/California/07/2009(H1N1)))
- Assay Info: biochemical
- Experimental Setup: Competition binding (AlphaLISA), pIC50 H1 A/California/07/09
pIC50: −log10 of the molar value.
Class Yes: pIC50 at least 7. Class No: pIC50 below 7.

Asked: State whether the measured pIC50 reaches 7, counting equality as reaching it, for COC(=O)C(c1ccccc1)N1CCN(C(=O)c2cccc(-c3ccc(OC)cc3)c2)CC1 (stereo not shown) [Example 83]
Given back: No

Asked: hey, is pIC50 for this one >= 7? COc1ccc2nc(-c3cccc(C(=O)N4CCN(C(c5ccccc5)c5noc(C)n5)CC4)c3)sc2c1 (stereo not shown) [Example 98]
Given back: No

Asked: Does the reported pIC50 for Cc1nc(C(c2ccccc2)N2CCN(C(=O)c3cccc(-c4nc5cc(C(F)(F)F)ccc5o4)c3)CC2)n[nH]1 (stereo not shown) [Example 116] fall at or above the 7 mark?
Given back: No

Asked: Is it the case that COC(=O)C(c1ccccc1)N1CCN(C(=O)C2CCCN(c3nc4ccc(OC)cc4s3)C2)CC1 (stereo not shown) [Example 115] has pIC50 reaching or exceeding 7?
Given back: No

Asked: Dear colleague, could you confirm whether CNc1ccc2oc(-c3cccc(C(=O)N4CCN(C(c5ccccc5)c5nnc(C)o5)CC4)c3)nc2c1 (stereo not shown) [Example 39] has pIC50 at or above 7?
Given back: Yes

Asked: Is pIC50 for CCOC(=O)C(c1ccccc1)N1CCN(C(=O)c2cccc(-c3ccc(OC)cc3)c2)CC1 (stereo not shown) [Example 120] at or above 7?
Given back: No

Asked: Reported pIC50 reaches at least 7 for Cc1nnc(C(c2ccccc2)N2CCN(C(=O)c3cc(-c4nc5cc(OC(F)(F)F)ccc5o4)ccn3)CC2)o1 (stereo not shown) [Example 28] ?
Given back: Yes

* * *

- Tested on: H1N1 A/New Caledonia/20/99
- Assay Info: microbe, parasite or virus in culture
- Format: cell-based, influenza A virus
- Experimental Setup: Influenza A virus, H1N1, MDCK, 96 h, read-out: Virus neutralization assay (VNA), pEC50 H1N1 A/New Caledonia/20/99 (converted)
Test Readout: EC50 (nM)
Express the result in nM but write the number alone.

Asked: Find the recorded EC50 belonging to COc1ccc2oc(-c3cccc(C(=O)N4CCN(C(c5ccccc5)c5nnc(C)o5)CC4)c3)nc2c1 (stereo not shown) [Example 36] and report it.
Given back: 126

Asked: Quick one: EC50 of CNc1ccc2oc(-c3cccc(C(=O)N4CCN(C(c5ccccc5)c5nnc(C)o5)CC4)c3)nc2c1 (stereo not shown) [Example 39] ?
Given back: 200

Asked: Would you mind telling me what EC50 value was observed for COC(=O)[C@@H](c1ccccc1)N1CCN(C(=O)c2cccc(-c3nc4cc(C(F)(F)F)ccc4o3)c2)[C@H](C)C1 [Example 37] ?
Given back: 251

Asked: Quick one: EC50 of O=C(c1cccc(-c2nc3cc(C(F)(F)F)ccc3o2)c1)N1CCN(C(c2ccccc2)c2nnc(C3CNC3)o2)CC1 (stereo not shown) [Example 92] ?
Given back: 794

* * *

- Tested on: H1N1 A/New Caledonia/20/99
- Assay Info: microbe, parasite or virus in culture
- Assay type: cell-based, influenza A virus
- Experimental Setup: Influenza A virus, H1N1, MDCK, 96 h, read-out: Virus neutralization assay (VNA), pEC50 H1N1 A/New Caledonia/20/99 (converted)
Test Readout: EC50
Field note: include the unit after the figure.

Asked: What EC50 appears in the records for this compound with H1N1 A/New Caledonia/20/99? COC(=O)[C@H](c1ccccc1)N1CCN(C(=O)c2cccc(-c3nc4cc(C(F)(F)F)ccc4o3)c2)[C@@H](C(N)=O)C1 [Example 62]
Given back: 631 nM

Asked: Test system H1N1 A/New Caledonia/20/99; read-out EC50; what value for Cc1nnc(C(c2ccccc2)N2CCN(C(=O)c3cccc(-c4nc5cccnc5o4)c3)CC2)o1 (centres unmarked) [Example 129] ?
Given back: 2000 nM

Asked: Notebook entry, H1N1 A/New Caledonia/20/99 assay: EC50 of COCCNC(=O)C(c1ccccc1)N1CCN(C(=O)c2cccc(-c3nc4ccc(OC)cc4s3)c2)CC1 (centres unmarked) [Example 97] = ?
Given back: 1000 nM

Asked: Quick check: EC50 on H1N1 A/New Caledonia/20/99, item COc1ccc2nc(-c3cccc(C(=O)N4CCN(C(c5ccccc5)c5nnn(C)n5)CC4)c3)sc2c1 (centres unmarked) [Example 72] ?
Given back: 631 nM

Asked: Request: EC50, test system H1N1 A/New Caledonia/20/99, entry COC(=O)C(c1ccccc1)C1CCN(C(=O)c2cccc(-c3nc4ccc(OC)cc4[nH]3)c2)CC1 (centres unmarked) [Example 123]
Given back: 1580 nM

Asked: Write down the reported EC50 of COc1nnc([C@@H](c2ccccc2)N2CCN(C(=O)c3cc(-c4nc5cc(OC(F)(F)F)ccc5o4)ccn3)CC2)o1 [Example 4] , test system: H1N1 A/New Caledonia/20/99.
Given back: 79.4 nM

Asked: Find the measured EC50: item COC(=O)C(c1ccccc1)N1CCN(C(=O)c2cccc(-c3nc4cc(C(F)(F)F)ccc4o3)c2)CC1 (centres unmarked) [Example 42] , target or system H1N1 A/New Caledonia/20/99.
Given back: 251 nM

Asked: Return EC50 measured with H1N1 A/New Caledonia/20/99 given this compound: O=C(c1cccc(-c2nc3cc(C(F)(F)F)ccc3o2)c1)N1CCN(C(c2ccccc2)c2nnc(C3CC3)o2)CC1 (centres unmarked) [Example 127]
Given back: 2000 nM

Asked: Return EC50 measured with H1N1 A/New Caledonia/20/99 given this compound: Cc1nnc(C(c2ccccc2)N2CCN(C(=O)c3cccc(-c4nc5cc(C(F)(F)F)ccc5o4)c3)CC2)o1 (centres unmarked) [Example 86]
Given back: 794 nM

Asked: Lab note: need EC50 for COC(=O)C(c1ccccc1)N1CCN(C(=O)c2cccc(-c3nc4cc(NC(C)=O)ccc4o3)c2)CC1 (centres unmarked) [Example 7] on H1N1 A/New Caledonia/20/99, anyone have it?
Given back: 25.1 nM

Asked: Short answer please: EC50, H1N1 A/New Caledonia/20/99, entry COC(=O)[C@@H](c1ccccc1)N1CCN(C(=O)c2cccc(-c3nc4ccc(OC)cc4s3)c2)CC1 [Example 19]
Given back: 100 nM

Asked: Checklist item: EC50 tested on H1N1 A/New Caledonia/20/99, entry Cc1nnc(C(c2ccccc2)N2CCN(C(=O)c3cccc(-c4nc5cc(Cl)ccc5o4)c3)CC2)o1 (centres unmarked) [Example 125] , value?
Given back: 2000 nM

Asked: Hello, I am looking for reported EC50 with H1N1 A/New Caledonia/20/99 for COC(=O)C(c1cccnc1)N1CCN(C(=O)c2cccc(-c3nc4ccc(OC)cc4s3)c2)CC1 (centres unmarked) [Example 68] . Could you help?
Given back: 501 nM

Asked: Write down the reported EC50 of CC(=O)Nc1ccc2oc(-c3ccnc(C(=O)N4CCN(C(c5ccccc5)c5n[nH]c(C)n5)CC4)c3)nc2c1 (centres unmarked) [Example 5] , test system: H1N1 A/New Caledonia/20/99.
Given back: 6.31 nM

Asked: State its EC50 on H1N1 A/New Caledonia/20/99: COc1ccc2nc(-c3cccc(C(=O)N4CCN(C(c5ccccc5)c5noc(C)n5)CC4)c3)sc2c1 (centres unmarked) [Example 98]
Given back: 1000 nM

Asked: Checklist item: EC50 tested on H1N1 A/New Caledonia/20/99, entry COc1ccc2nc(-c3cccc(C(=O)N4CCN(C(Cc5nnco5)c5ccccc5)CC4)c3)sc2c1 (centres unmarked) [Example 108] , value?
Given back: 1000 nM

Asked: Request - read-out EC50 | tested on H1N1 A/New Caledonia/20/99 | compound COC(=O)[C@H](c1ccccc1)N1CCN(C(=O)c2cccc(-c3nc4cc(C(F)(F)F)ccc4o3)c2)[C@@H](C)C1 [Example 117]
Given back: 1260 nM

Asked: Return EC50 measured with H1N1 A/New Caledonia/20/99 given this compound: COC(=O)[C@H](c1ccccc1)N1CCN(C(=O)c2cccc(-c3nc4cc(C(F)(F)F)ccc4o3)c2)[C@H](C(N)=O)C1 [Example 46]
Given back: 158 nM

Asked: Write down the reported EC50 of COC(=O)[C@@H](c1ccccc1)N1CCN(C(=O)c2cccc(-c3nc4cc(OC)ccc4o3)c2)CC1 [Example 8] , test system: H1N1 A/New Caledonia/20/99.
Given back: 31.6 nM

Asked: Observed EC50 on H1N1 A/New Caledonia/20/99 for COC(=O)C(c1ccccc1)C1CCN(C(=O)c2cccc(-c3ccc(OC)cc3)c2)CC1 (centres unmarked) [Example 130] , please.
Given back: 2000 nM

Asked: EC50 of COC(=O)[C@@H](c1ccccc1)N1CCN(C(=O)c2cccc(-c3nc4cc(C(F)(F)F)ccc4o3)c2)[C@H](CC(N)=O)C1 [Example 67] on H1N1 A/New Caledonia/20/99?
Given back: 631 nM

Asked: Param readout = EC50; param system = H1N1 A/New Caledonia/20/99; param query = Cc1nnc([C@@H](c2ccccc2)N2CCN(C(=O)c3cccc(-c4ccc5ccccc5n4)c3)CC2)o1 [Example 112] ; response: value
Given back: 1260 nM

Asked: Which measured EC50 belongs to COC(=O)C(c1ccccc1)N1CCN(C(=O)c2cccc(-c3nc4cccnc4o3)c2)CC1 (centres unmarked) [Example 50] , tested on H1N1 A/New Caledonia/20/99?
Given back: 316 nM

Asked: Form entry - test system: H1N1 A/New Caledonia/20/99; read-out: EC50; compound: CNC(=O)C(c1ccccc1)N1CCN(C(=O)c2cccc(-c3nc4ccc(OC)cc4s3)c2)CC1 (centres unmarked) [Example 103]
Given back: 1000 nM

Asked: Short answer please: EC50, H1N1 A/New Caledonia/20/99, entry COC(=O)C(c1ccccc1)N1CCN(C(=O)c2cccc(-c3nc4ncccc4o3)c2)CC1 (centres unmarked) [Example 24]
Given back: 126 nM

Asked: Reported EC50 for H1N1 A/New Caledonia/20/99, given COc1ccc2nc(-c3cccc(C(=O)N4CCN(C(c5ccccc5)c5nnco5)CC4)c3)sc2c1 (centres unmarked) [Example 79] ?
Given back: 631 nM

Asked: API: value(readout= EC50, system= H1N1 A/New Caledonia/20/99, query= Cc1nnc([C@@H](c2ccccc2)N2CCN(C(=O)c3cccc(-c4nc5c(C)cccc5o4)c3)CC2)o1 [Example 32] )
Given back: 158 nM

Asked: Value wanted: EC50 (H1N1 A/New Caledonia/20/99) of entry COc1ccc2nc(-c3cccc(C(=O)N4CCN([C@@H](c5ccccc5)c5nnc(C)o5)CC4)c3)sc2c1 [Example 124]
Given back: 2000 nM

Asked: What value of EC50 on H1N1 A/New Caledonia/20/99 does COC(=O)C(c1ccccn1)C1CCN(C(=O)c2cccc(-c3nc4ccc(OC)cc4s3)c2)CC1 (centres unmarked) [Example 66] have?
Given back: 501 nM

Origin of values: patent US11040963B2
